Origin of measurements: ChEMBL document CHEMBL4689842

List of Total Cell Count values.
system: Fibroblast; experiment: Multiplex assay against human fibroblast; type: toxicity, cell-based; conditions: 12 h, 1 µM, compound concentration 1 uM, replicate 2
PROPERTY MEASURED: Total Cell Count

1) CC(=O)c1cc(-c2cc(C(=O)NC3CC3)ccc2C)c2ncccn12: 73
2) CNc1oc(-c2cccc3ccccc23)nc1C#N: 100
3) Cc1nc(Cc2cccc(C(F)(F)F)c2)sc1-c1ccc(C(N)=O)nc1 [TP-024n]: 130
4) Nc1nc2c(c(N3CCNCC3)n1)CCC1=C2[C@@H]2CCCC[C@@H]2O1: 71
5) Nc1ccc(C(=O)Nc2cccc(-c3nc(N4CCOCC4)c4oc5ncccc5c4n3)c2)cn1: 55
6) Cl.Cl.NC1(c2ccc(-c3nc4ccn5c(=O)[nH]nc5c4cc3-c3ccccc3)cc2)CCC1: 161
7) CN(C)C/C=C/C(=O)Nc1cc2c(Nc3ccc(F)c(Cl)c3)ncnc2cc1O[C@H]1CCOC1.O=C(O)/C=C\C(=O)O.O=C(O)/C=C\C(=O)O [AFATINIB DIMALEATE]: 99
8) Cl.Cl.Nc1ncnc2c1c(-c1cccc(OCc3ccccc3)c1)cn2[C@H]1C[C@@H](CN2CCC2)C1: 55
9) CNC(=O)c1nn(C)c2c1C(C)(C)Cc1cnc(Nc3ccc(N4CCN(C)CC4)cc3)nc1-2: 97
10) CC(C)N1CCC(C)(C)c2cc(C#Cc3ccc(C(=O)O)cc3)ccc21: 69
11) CCn1c(-c2nonc2N)nc2cnc(Oc3cccc(NC(=O)c4ccc(OCCN5CCOCC5)cc4)c3)cc21 [GSK-269962A]: 45
12) COc1cc(N2CCC(N(C)C)CC2)ccc1Nc1ncc(Cl)c(Nc2ccccc2P(C)(C)=O)n1: 58
13) COc1ccc(NS(=O)(=O)c2sc3ccc(Cl)cc3c2C)cc1N1CCNCC1.Cl: 69
14) COc1cc2c(NC3CCN(C(C)C)CC3)nc(N3CCC(F)(F)CC3)nc2cc1OCCCN1CCCC1: 105
15) CCC(=O)O[C@]1(C(=O)SCF)[C@H](C)C[C@H]2[C@@H]3C[C@H](F)C4=CC(=O)C=C[C@]4(C)[C@@]3(F)[C@@H](O)C[C@@]21C [FLUTICASONE PROPIONATE]: 68
16) c1ccc2oc(-c3csc(C4CCN(Cc5nc6ncccc6[nH]5)CC4)n3)cc2c1: 103
17) CC(C)(C)c1cnc(CSc2cnc(NC(=O)C3CCNCC3)s2)o1: 82

* * *

test system: U2OS; assay: Incucyte cell viability with U2OS; format: toxicity, cell-based; settings: human, 6 h, 10 µM, compound concentration 10 uM, replicate number 1, timepoint 6 hours; further: filed as whole numbers so only -1 and 0 and 1 occur
List of Growth Rate values.
PROPERTY MEASURED: Growth Rate

1) O=C(Nc1cccc2c(=O)cc(-c3nnn[nH]3)oc12)c1ccc(OCCCCc2ccccc2)cc1: 0
2) COc1ccc(COc2ccc(Cc3cnc(N)nc3N)cc2OC)cc1 [GW632580X]: 0
3) C[C@@H]1CCc2ncc(F)cc2[C@H]2CCCN2c2ccn3ncc(c3n2)C(=O)N1: 0
4) C[C@H]1CCCN1Cc1nc2cc(NC(=O)c3ccc4cnccc4c3)ccc2[nH]1: 0
5) CC(C)(C)c1cnc(CSc2cnc(NC(=O)C3CCNCC3)s2)o1: 1
6) COc1cc2c(cc1-c1c(C)noc1C)ncc1[nH]c(=O)n([C@H](C)c3ccccn3)c12: 1
7) COc1cccc(CNC(=O)c2nc3scc(CN(C)Cc4ccccc4)c3c(=O)[nH]2)c1 [T-26f]: 1
8) CC(C)Oc1ccc(-c2nn([C@@H](C)c3oc4ccc(F)cc4c(=O)c3-c3cccc(F)c3)c3ncnc(N)c23)cc1F: 0
